# measured-target: Paired box protein Pax-8 (Homo sapiens)
# Sequence (Q06710 whole entry): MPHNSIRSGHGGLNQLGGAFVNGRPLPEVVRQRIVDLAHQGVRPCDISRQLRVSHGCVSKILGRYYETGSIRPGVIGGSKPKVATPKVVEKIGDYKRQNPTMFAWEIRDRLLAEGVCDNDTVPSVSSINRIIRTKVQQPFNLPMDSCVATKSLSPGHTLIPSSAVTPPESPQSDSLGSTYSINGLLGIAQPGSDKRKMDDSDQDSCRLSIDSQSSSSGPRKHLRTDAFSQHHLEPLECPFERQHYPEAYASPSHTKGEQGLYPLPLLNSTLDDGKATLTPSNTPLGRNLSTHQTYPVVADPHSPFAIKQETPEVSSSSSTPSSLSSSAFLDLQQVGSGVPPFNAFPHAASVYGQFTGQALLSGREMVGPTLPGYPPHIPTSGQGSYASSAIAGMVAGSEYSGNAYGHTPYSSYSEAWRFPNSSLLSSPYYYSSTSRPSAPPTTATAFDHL
# procedure-details: inhibitors of PAX8-driven TPO luciferase reporter, dose response, RMG-I cells, cherry-pick (AID 687027);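 also: luciferase reporter driven by Pax8 target thyroperoxidase promoter measured by SteadyGlo luminescence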
# Assay type: functional, cell-based
Active and inactive are the calls of the source. No rule for the calls is given here.
recorded-endpoint: AC50

Take a look at these entries with their results.
{"columns": ["mol-smiles", "result"],
 "data": [
  ["C[C@H](CO)N1C[C@H](C)[C@@H](CN(C)Cc2ccc(Cl)c(Cl)c2)Oc2ccc(NC(=O)Nc3ccc(C(F)(F)F)cc3)cc2CC1=O", "6.35 µM (active)"],
  ["C[C@@H]1CCCCO[C@@H](CN(C)Cc2ccc(C(F)(F)F)cc2)[C@H](C)CN([C@H](C)CO)C(=O)c2cc(NS(=O)(=O)c3ccccc3)ccc2O1", "6.14 µM (active)"],
  ["C[C@@H]1CN([C@@H](C)CO)C(=O)Cc2cc(NC(=O)C3CC3)ccc2O[C@H]1CN(C)Cc1ccc(-c2ccccc2)cc1", "18.9 µM (active)"],
  ["C[C@H](CO)N1C[C@H](C)[C@H](CN(C)S(=O)(=O)c2ccc(F)cc2)OCCCC[C@H](C)Oc2ccc(NS(=O)(=O)c3ccc(Cl)cc3)cc2C1=O", "10.1 µM (active)"],
  ["C[C@@H]1CCCCO[C@H](CN(C)C(=O)Nc2ccc(C(F)(F)F)cc2)[C@@H](C)CN([C@@H](C)CO)C(=O)c2cc(NC(=O)Nc3ccccc3)ccc2O1", "1.89 µM (active)"]
]}

Now look at this one.
Request: Given "C[C@@H](O)C#Cc1ccc2c(c1)O[C@H](CN(C)Cc1ccc(-c3ccccc3)cc1)[C@@H](C)CN([C@@H](C)CO)S2(=O)=O" , state its recorded AC50.
Response: 4.84 µM (active)
